Target: Retinaldehyde dehydrogenase 3 (Homo sapiens) (UniProt P47895)
Assay: qHTS for Inhibitors of the Aldehyde Dehydrogenase Family (ALDH1A3) Primary screen (AID 2061315);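 note: plate controls were DMSO vehicle for no effect and reference inhibitor for full effect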
Details: ALDH inhibition qHTS; series mostly up to 56 µM
Inconclusive results are not listed. Calls of active or inactive are those of the source. Calls come from the whole dose curve; as a rule, active = well fitted inhibition curve with a large enough effect; inconclusive = small, poorly fitted or top-dose-only effect; inactive = no such curve, though single readings can be large or run the other way.
Reported Endpoint: activity change, negative = inhibition

Example entries begin here.
Compound	activity change, negative = inhibition
Cc1c(P(=S)(c2ccccc2)c2ccccc2)c2ccccc2n1C(=O)NCc1ccccc1	inactive
Cc1nc(NCc2ccccc2)c2nc(-c3ccccc3)n(CC(C)(C)CN(C)C)c2n1	inactive
Cc1cc(/C=C2/C(=O)Nc3ccccc32)cc(C)c1O	inactive
CCOC(=O)c1c(CNCc2ccccc2F)c2sc(C)cc2n1C	inactive
COC(=O)c1nc(Nc2cc(F)cc(F)c2)nc(NC2CCCC2)n1	inactive

Prompt: What value of activity change, negative = inhibition on Retinaldehyde dehydrogenase 3 (Homo sapiens) (UniProt P47895) does CN(Cc1nccs1)S(=O)(=O)c1ccc(Nc2nc(-c3ccccc3)cs2)cc1 have?
Response: inactive

Prompt: What value of activity change, negative = inhibition on Retinaldehyde dehydrogenase 3 (Homo sapiens) (UniProt P47895) does CC(C)(C)NS(=O)(=O)c1cccc(-c2nnc(SCC(=O)Nc3ccc(C(=O)O)cc3)n2-c2ccc(F)cc2)c1 have?
Response: inactive

Prompt: What value of activity change, negative = inhibition on Retinaldehyde dehydrogenase 3 (Homo sapiens) (UniProt P47895) does CC1CCC2(C(=O)OC3OC(COC4OC(CO)C(O)C(O)C4O)C(O)C(O)C3O)CCC3(C)C(=CCC4C5(C)CCC(O)C(C)(C(=O)O)C5CCC43C)C2C1(C)O (configuration not stated) have?
Response: inactive

Prompt: What value of activity change, negative = inhibition on Retinaldehyde dehydrogenase 3 (Homo sapiens) (UniProt P47895) does COc1ccc(-c2nnc3n2N=C(c2ccccc2OC)CS3)cc1OC have?
Response: inactive

Prompt: What value of activity change, negative = inhibition on Retinaldehyde dehydrogenase 3 (Homo sapiens) (UniProt P47895) does O=C(Nc1ccc(S(=O)(=O)Nc2nccs2)cc1)c1cc(-c2ccccc2)nc2ccccc12 have?
Response: inactive

Prompt: What value of activity change, negative = inhibition on Retinaldehyde dehydrogenase 3 (Homo sapiens) (UniProt P47895) does Clc1cccc(-c2nc(-c3ccc(-c4nn[nH]n4)cc3)no2)c1 have?
Response: inactive

Prompt: What value of activity change, negative = inhibition on Retinaldehyde dehydrogenase 3 (Homo sapiens) (UniProt P47895) does N[C@@H](Cc1ccc(O[S+](=O)([O-])c2cccc3cccnc23)cc1)C(=O)N1CCN(c2ccccc2)CC1 have?
Response: inactive

* * *

Target: Retinaldehyde dehydrogenase 3 (Homo sapiens)
Assay: qHTS for Inhibitors of the Aldehyde Dehydrogenase Family (ALDH1A3) Confirmatory screens (AID 2061311); note: nearly all actives have a fitted effect of over 60% in size; note: potency is the fitted concentration of half-maximal effect
Settings: ALDH inhibition qHTS; series mostly up to 46 µM
Records with an inconclusive call do not appear. Activity calls are given as the source filed them. Calls come from the whole dose curve; as a rule, active = well fitted inhibition curve with a large enough effect; inconclusive = small, poorly fitted or top-dose-only effect; inactive = no such curve, though single readings can be large or run the other way.
Reported Endpoint: Potency

                                   compound            result
0    Cc1noc2c(NCCc3ccccn3)cc(-c3ccccn3)nc12  14.1 µM (active)
1           Oc1ccc(CNc2cc(Cl)ccn2)c2cccnc12  3.57 µM (active)
2                Cc1ccc(-c2ccccc2C=O)c(C)c1          inactive
3  CCC(=O)NC(C)c1cc(Cl)c2ccccc2c1O (stereo not given)  12.7 µM (active)
4  Cc1cc(C)nc(NC(=S)N2CCN(c3ccc4nonc4c3)CC2)c1  15.9 µM (active)

Prompt: May I ask what Potency has been recorded for CC(=O)Nc1sc2c(c1-c1ccc(N3CCN(C)CC3)cc1)CCNC2 ?
Response: inactive

* * *

Molecular target: Aldehyde dehydrogenase, mitochondrial (Homo sapiens) (UniProt P05091)
Experiment: qHTS for Inhibitors of the Aldehyde Dehydrogenase Family (ALDH2) Primary screen (AID 2061308); note: nearly all actives have a fitted effect of over 55% in size
Settings: ALDH2 enzyme inhibition qHTS, 1536-well; series mostly up to 56 µM
Inconclusive results are not listed. Activity calls are given as the source filed them. Calls come from the whole dose curve; as a rule, active = well fitted inhibition curve with a large enough effect; inconclusive = small, poorly fitted or top-dose-only effect; inactive = flat fitted curve, though single readings scatter.
Reported Endpoint: outcome

Example entries begin here.
>>> print(df.to_string())
                               entry_smiles    result
0  O=C1CCc2cc(S(=O)(=O)Nc3ccccc3-c3ccccc3)ccc2N1  inactive
1   CN1CCN(c2ccc(-c3cc(O)c4ncccc4c3)cc2)CC1  inactive
2  C=C1C(=O)O[C@H]2/C=C(/C)[C@@H](OC(C)=O)C/C=C(\C)C[C@@H](OC(=O)/C(=C/C)COC(=O)/C(=C/C)CO)[C@@H]12  inactive
3  Fc1ccc(Nc2nc(-c3ccnc(N4CCCCC4)c3)nc3ccccc23)cc1F  inactive

Prompt: May I ask what outcome has been recorded for Cc1ccc(NS(=O)(=O)c2cc3c(cc2Cl)NC(=O)C3)cc1C ?
Response: inactive

* * *

Experiment: qHTS for Inhibitors of the Aldehyde Dehydrogenase Family (ALDH1A2, ALDH1A3, ALDH2, ALDH3A1) (AID 2061307); note: nearly all actives have a fitted effect of over 50% in size
Conditions: ALDH inhibition qHTS; series mostly up to 50.3 µM
Results filed as inconclusive are left out. Activity calls are given as the source filed them. Calls follow the shape of the dose curve; as a rule, active = well fitted inhibition curve with a large enough effect; inconclusive = small, poorly fitted or top-dose-only effect; inactive = no such curve, though single readings can be large or run the other way.
Bench note: report the call from 1 (active), -1 (inactive)

In [3]: df
Out[3]:
                                   compound  class_label
0  COc1cccc(S(=O)(=O)N2CCC3(CC2)CC(CC(=O)NC2CC2)CCO3)c1 (stereo unspecified)           -1

Prompt: Could you please tell me the result logged for COc1cccc2cc(C(=O)Nc3ccc(C)cc3)c(=O)oc12 in this assay?
Response: -1

Prompt: Could you please tell me the result logged for CC(=O)Nc1sc2c(c1-c1nc3ccccc3o1)CCN(C(C)C)C2 in this assay?
Response: 1

Prompt: Could you please tell me the result logged for Cc1c2c(=O)n(-c3ccccc3)[nH]c2cc(=O)n1Cc1ccccn1 in this assay?
Response: -1

Prompt: Could you please tell me the result logged for C#CCOc1ccc(-c2no[n+]([O-])c2C#N)cc1 in this assay?
Response: 1

Prompt: Could you please tell me the result logged for Cn1cc2c(=O)n(-c3ccccc3)c(SCc3cccc(F)c3)nc2n1 in this assay?
Response: -1

* * *

Molecular target: Aldehyde dehydrogenase, mitochondrial (Homo sapiens)
Experiment: qHTS for Inhibitors of the Aldehyde Dehydrogenase Family (ALDH2) Primary screen (AID 2061308); note: nearly all actives have a fitted effect of over 55% in size
Details: ALDH2 enzyme inhibition qHTS, 1536-well; series mostly up to 56 µM
Records with an inconclusive call do not appear. Active and inactive are the calls of the source. Calls follow the shape of the dose curve; as a rule, active = well fitted inhibition curve with a large enough effect; inconclusive = small, poorly fitted or top-dose-only effect; inactive = flat fitted curve, though single readings scatter.
Reported Endpoint: outcome

Example entries begin here.
>>> df
                               entry_smiles  reported_endpoint    result
0        NC(=O)c1ccccc1-c1noc(-c2ccccc2F)n1            outcome  inactive
1  CC(=O)N[C@H](C(=O)N[C@@H](C)C(=O)N[C@H](C#N)CC(=O)O)C(C)C            outcome  inactive
2  CC(=O)Nc1sc2c(c1-c1ccc(-c3nn[nH]n3)cc1)CCNC2            outcome  inactive
3  COC(=O)c1cc2c(C(F)(F)F)cc(-c3ccccc3)cc2n1O            outcome  inactive
4  COc1ccc(-c2nnc3n2N=C(c2cccc(OC)c2)CS3)cc1            outcome  inactive

Prompt: What value of outcome on Aldehyde dehydrogenase, mitochondrial (Homo sapiens) does COc1ccc(C[C@H](N)C(=O)N[C@@H]2[C@H](O)[C@H](n3cnc4c(N(C)C)ncnc43)O[C@@H]2CO)cc1 have?
Response: inactive

Prompt: What value of outcome on Aldehyde dehydrogenase, mitochondrial (Homo sapiens) does Cc1ccc(C(=O)N2CCc3cc(-c4nc(NC(=O)Cc5ccc6c(c5)OCO6)sc4C)ccc32)cc1 have?
Response: inactive

Prompt: What value of outcome on Aldehyde dehydrogenase, mitochondrial (Homo sapiens) does O=C(Nc1ccc(F)c(C(F)(F)F)c1)Nc1cccc(-c2ccncc2)n1 have?
Response: inactive

Prompt: What value of outcome on Aldehyde dehydrogenase, mitochondrial (Homo sapiens) does O=[S+]([O-])(c1ccc(OC(F)(F)F)cc1)N1CCN([S+](=O)([O-])c2ccc3c(c2)OCCO3)CC1 have?
Response: inactive

Prompt: What value of outcome on Aldehyde dehydrogenase, mitochondrial (Homo sapiens) does Cc1cc(C)nc(NC(=S)N2CCN(c3cccc(C#N)c3)CC2)c1 have?
Response: inactive

* * *

Biological target: Aldehyde dehydrogenase, mitochondrial (Homo sapiens) (UniProt P05091)
Experiment: qHTS for Inhibitors of the Aldehyde Dehydrogenase Family (ALDH2) Primary screen (AID 2061308); note: nearly all actives have a fitted effect of over 55% in size
Conditions: ALDH2 enzyme inhibition qHTS, 1536-well; series mostly up to 56 µM
Inconclusive results are not listed. Calls of active or inactive are those of the source. Calls come from the whole dose curve; as a rule, active = well fitted inhibition curve with a large enough effect; inconclusive = small, poorly fitted or top-dose-only effect; inactive = flat fitted curve, though single readings scatter.
Bench note: report the call from active, inactive

Compound	Class Label
Fc1ccc(Nc2nc(-c3ccncc3F)nc3ccccc23)cc1F	inactive

Prompt: Could you please tell me the result logged for CC(C)N1CCc2c(-c3nc4ccccc4s3)csc2C1 in this assay?
Response: inactive

Prompt: Could you please tell me the result logged for C/C=C/C(=O)OC1/C=C/C(O)C(OC(C)=O)CCC(=O)OC1C (centres undefined) in this assay?
Response: inactive

Prompt: Could you please tell me the result logged for CN1CCN(c2cc(-c3cc(O)c4ncccc4c3)ccn2)CC1 in this assay?
Response: inactive

Prompt: Could you please tell me the result logged for N#Cc1ccc(NC(=O)Nc2nnc(-c3ccncc3)s2)cc1 in this assay?
Response: inactive

Prompt: Could you please tell me the result logged for Cc1cccc(CNc2nc(-c3ccccc3C(F)(F)F)nc3ccccc23)c1 in this assay?
Response: inactive

Prompt: Could you please tell me the result logged for O=C(Nc1ncc(-c2ccccc2)s1)c1ccc(-c2cccc([N+](=O)[O-])c2)o1 in this assay?
Response: inactive

Prompt: Could you please tell me the result logged for O=C(Nc1ncc(SCCN2CCCC2)s1)C1(c2ccc(S(=O)(=O)C3CC3)cc2)CC1C1CCCCC1 (centres undefined) in this assay?
Response: inactive

Prompt: Could you please tell me the result logged for Cc1ccc(S(=O)(=O)Nc2cnccc2C(=O)Nc2ccncc2)cc1 in this assay?
Response: inactive

Prompt: Could you please tell me the result logged for O=C(Nc1ccc(Br)c(Br)c1)Nc1nnc(-c2cccnc2)s1 in this assay?
Response: inactive

Prompt: Could you please tell me the result logged for CC#CC(=O)Nc1ccc2ncnc(Nc3cccc(Br)c3)c2c1 in this assay?
Response: inactive

Prompt: Could you please tell me the result logged for CO[C@H]1C[C@@H]2CC[C@@H](C)[C@@](O)(O2)C(=O)C(=O)N2CCCC[C@H]2C(=O)O[C@H]([C@@H](C)C[C@@H]2CC[C@@H](O)[C@H](OC)C2)CC(=O)[C@H](C)/C=C(\C)[C@@H](O)[C@@H](OC)C(=O)[C@H](C)C[C@H](C)/C=C/C=C/C=C/1C in this assay?
Response: inactive

Prompt: Could you please tell me the result logged for Nc1nc2c(ncn2C2OC3COP(=O)(O)OC3C2O)c(=O)[nH]1 (centres undefined) in this assay?
Response: inactive

Prompt: Could you please tell me the result logged for O=C(CNC(=O)c1ccc(Cl)c(C(F)(F)F)c1)OC(C(=O)Nc1cc(C(F)(F)F)ccc1Cl)c1ccccc1 (centres undefined) in this assay?
Response: inactive

Prompt: Could you please tell me the result logged for C=C[C@H](/C=C\c1ccc(O)cc1)c1ccc(O)cc1 in this assay?
Response: inactive

Prompt: Could you please tell me the result logged for CCn1cnc2c(Nc3cc(F)cc(F)c3)nc(C(=O)COc3c(F)c(F)cc(F)c3F)nc21 in this assay?
Response: inactive

Prompt: Could you please tell me the result logged for O=S(=O)(c1ccc2c(c1)OCCO2)N1CCN(S(=O)(=O)c2c(F)cccc2F)CC1 in this assay?
Response: inactive

Prompt: Could you please tell me the result logged for Cc1ccnc(NC(=S)N2CCN(c3cc(Cl)cc(Cl)c3)CC2)c1 in this assay?
Response: active

Prompt: Could you please tell me the result logged for Cc1cc2c(s1)c1cnn(Cc3cc(F)cc(F)c3F)c(=O)c1n2C in this assay?
Response: inactive

Recorded values, source PubChem BioAssay (NCATS).
